Assay: SW1088 Cancer Cell Toxicity qHTS against the NCATS CANVASS Library (AID 1347350); further: nearly all actives have a fitted effect of over 75% in size
Conditions: SW1088 viability, CellTiter-Glo luminescence, 72 h; series mostly up to 38.3 µM
Inconclusive results are not listed. Calls of active or inactive are those of the source. The call rests on the fitted dose curve; in most records, active means well fitted cell-killing curve with a large enough effect; inconclusive means small, poorly fitted or top-dose-only effect; inactive means flat fitted curve, though single readings scatter.
measured endpoint: outcome

Check out these entries, answers already filled in.
[[record]]
compound = "C=C1C[C@@]23C=CC(=O)[C@@](C)(CCC(=O)Nc4c(O)ccc(C(=O)O)c4O)C2C[C@@H]1C(O)C3 (stereo partly drawn)"
result = "inactive"

[[record]]
compound = "C=C1/C=C\\C(CCC)=C\\c2csc(n2)C(C)NC(=O)C[C@@]2(CC(=O)O)CCC(=C)[C@H](C1)S2 (stereo partly drawn)"
result = "inactive"

[[record]]
compound = "O=Cc1ccc2n1C[C@@]1(OC2)O[C@H](CO)[C@@H](O)[C@@H]1O"
result = "inactive"

[[record]]
compound = "CC1(C)CCC[C@]2(C)[C@@H]1CC[C@@]13C[C@@H](CC[C@H]12)C(C)(O)C3 (stereo partly drawn)"
result = "inactive"

[[record]]
compound = "CO[C@@H]1[C@H](O)[C@@H](C)O[C@@H](OC[C@H]2/C=C/C=C/C(=O)C(C)C[C@H](C)C(O[C@@H]3O[C@H](C)CC4(OC(=O)O[C@@H]4C)C3O)[C@@H](C)/C=C/C(=O)OC2C)[C@@H]1OC (stereo partly drawn)"
result = "inactive"


Would you mind listing outcome for each of the following compounds?
1. O=C(O)CC1OC(=O)c2c(O)cccc21 (stereo not drawn)
2. O=C1C[C@@H](c2ccc(O)c(-c3c(O)cc(O)c4c3O[C@H](c3ccc(O)cc3)CC4=O)c2)Oc2cc(O)cc(O)c21
3. CC1=CC[C@@]2(C[C@@H]1O)[C@@H](C(=O)O)CC[C@H]2C(C)C

1. inactive
2. inactive
3. inactive
